tested on: S. Aureus Smith; test: In vitro antibacterial activity, MIC (modified Autotiter method); type: cell-based, Staphylococcus aureus; conditions: Staphylococcus aureus, 20 h, 18-20 hours at 37° C.; read-out: MIC S. Aureus Smith
Define the label as condition met when MIC is strictly less than 2 µg/mL and as condition not met in all remaining cases.

                                   compound    tested_system   class_assignment
0  Nc1cc[n+](CCCCCCCC[n+]2ccc(N)cc2)cc1 [I, reference compound]  S. Aureus Smith  condition not met
1  c1c[n+](CCCCCCC[n+]2ccc(NC3CCCCC3)cc2)ccc1NC1CCCCC1 [Example 37]  S. Aureus Smith  condition not met
2  Cc1cc(N)cc[n+]1CCCCCCCCC[n+]1ccc(N)cc1C [IX, reference compound]  S. Aureus Smith  condition not met
3  CCCCCCCNc1cc[n+](CCCCCCCCCCCC[n+]2ccc(NCCCCCCC)cc2)cc1 [Example 3]  S. Aureus Smith      condition met
4  CCCCCCCNc1cc[n+](CCCCC[n+]2ccc(NCCCCCCC)cc2)cc1 [Example 60]  S. Aureus Smith      condition met
5  CCCCCCNc1cc[n+](CCCCCCCC[n+]2ccc(NCCCCCC)cc2)cc1 [Example 32]  S. Aureus Smith      condition met

----------
# key: entry, value: Mortality 7 Days
system: young adult male Swiss-Webster strain albino mice; assay: Acute oral toxicity (ALD50); type: in vivo; conditions: 1000 mg/kg oral, suspension in 1% G.T.
measurement.label: Mortality 7 Days

In [3]: df
Out[3]:
                                   molecule  value_reported
0  CCCCCCCNc1cc[n+](CCCCCCCCCCCC[n+]2ccc(NCCCCCCC)cc2)cc1 [Example 4]             0/3
1  CCCCC(CC)CNc1cc[n+](CCCCCCCC[n+]2ccc(NCC(CC)CCCC)cc2)cc1 (stereo not drawn)             1/3
2  CCCCCCCNc1cc[n+](CCCCCCCCCCCCCC[n+]2ccc(NCCCCCCC)cc2)cc1 [Example 1D]             2/3

----------
# key: entry, value: MIC E. coli Vogel
system: E. coli Vogel; assay: In vitro antibacterial activity, MIC (modified Autotiter method); type: cell-based, Escherichia coli; conditions: 18-20 hours at 37° C.
measurement.label: MIC E. coli Vogel (µg/mL)

                                   compound  value_reported
0  CCCCCCCCNc1cc[n+](CCCCCCCCCC[n+]2ccc(NCCCCCCCC)cc2)cc1 [Example 9D]            1.95
1  CCCCCCNc1cc[n+](CCCCCCCCCCCC[n+]2ccc(NCCCCCC)cc2)cc1 [Example 8]             1.0
2  CCCCCCCNc1cc[n+](CCCCCCCCCCCC[n+]2ccc(NCCCCCCC)cc2)cc1 [Example 4]             0.5
3  CCCCCCCNc1cc[n+](CCCCCCCCCCCCCC[n+]2ccc(NCCCCCCC)cc2)cc1            1.54

----------
system: E. coli 100/B22; assay: In vitro antibacterial activity, MIC (modified Autotiter method); assay type: cell-based, Escherichia coli; settings: Escherichia coli, 100/B22, 20 h, 18-20 hours at 37° C.; read-out: MIC E. coli 100/B22
# key: entry, value: MIC
measurement.label: MIC (µg/mL)

>>> df
                                   compound  measurement_label  value_reported
0  CCCCCCCNc1cc[n+](CCCCCC[n+]2ccc(NCCCCCCC)cc2)cc1                MIC             1.6
1  Clc1ccc(Nc2cc[n+](CCCCCCC[n+]3ccc(Nc4ccc(Cl)cc4)cc3)cc2)cc1                MIC             3.9
2  Clc1ccc(Nc2cc[n+](CCCCCCCCCC[n+]3ccc(Nc4ccc(Cl)cc4)cc3)cc2)cc1 [Example 79B]                MIC             1.6
3  CCCCCCNc1cc[n+](CCCCCCCCCCCC[n+]2ccc(NCCCCCC)cc2)cc1                MIC             0.5
4  CCCCCCNc1cc[n+](CCCCCC[n+]2ccc(NCCCCCC)cc2)cc1                MIC            0.78
5  CCCCCCNc1cc[n+](CCCCCCCCCC[n+]2ccc(NCCCCCC)cc2)cc1                MIC            1.95
6  Fc1ccc(Nc2cc[n+](CCCCCCCC[n+]3ccc(Nc4ccc(F)cc4)cc3)cc2)cc1                MIC            15.6
7  CCCCC(CC)CNc1cc[n+](CCCC[n+]2ccc(NCC(CC)CCCC)cc2)cc1 (centres unmarked)                MIC            31.3

----------
system: S. pyogen. C203; assay: In vitro antibacterial activity, MIC (modified Autotiter method); assay type: cell-based, Streptococcus pyogenes; conditions: Streptococcus pyogenes, 20 h, 18-20 hours at 37° C.; read-out: MIC S. pyogen. C203
Define the label as 1 (yes) when MIC is strictly less than 8 µg/mL and as 0 (no) in all remaining cases.

>>> df
                                    compound    tested_system  class_assignment
 0  CCCCC(CC)CNc1cc[n+](CCCC[n+]2ccc(NCC(CC)CCCC)cc2)cc1 (centres unmarked)  S. pyogen. C203           1 (yes)
 1  Clc1ccc(Nc2cc[n+](CCCCCC[n+]3ccc(Nc4ccc(Cl)cc4)cc3)cc2)cc1 [Example 77B]  S. pyogen. C203           1 (yes)
 2  CCCCCCCCCCCCNc1cc[n+](CCCCCCCCC[n+]2ccc(NCCCCCCCCCCCC)cc2)cc1  S. pyogen. C203            0 (no)
 3  Clc1ccc(Nc2cc[n+](CCCCC[n+]3ccc(Nc4ccc(Cl)cc4)cc3)cc2)cc1  S. pyogen. C203           1 (yes)
 4  c1c[n+](CCCCCCCCC[n+]2ccc(NC3CCCCC3)cc2)ccc1NC1CCCCC1  S. pyogen. C203           1 (yes)
 5  Clc1ccc(Nc2cc[n+](CCCCCCCCC[n+]3ccc(Nc4ccc(Cl)cc4)cc3)cc2)cc1  S. pyogen. C203           1 (yes)
 6  c1c[n+](CCCC[n+]2ccc(NC3CCCCC3)cc2)ccc1NC1CCCCC1  S. pyogen. C203            0 (no)
 7  CCCCCCNc1cc[n+](CCCCCCCC[n+]2ccc(NCCCCCC)cc2)cc1  S. pyogen. C203           1 (yes)
 8  c1c[n+](CCCCC[n+]2ccc(NC3CCCCC3)cc2)ccc1NC1CCCCC1  S. pyogen. C203            0 (no)
 9  Nc1cc[n+](CCCCCC[n+]2ccc(N)cc2)cc1 [IV, reference compound]  S. pyogen. C203            0 (no)
10  c1c[n+](CCCCCC[n+]2ccc(NC3CCCCC3)cc2)ccc1NC1CCCCC1  S. pyogen. C203            0 (no)
11  CCCCCCCCCCNc1cc[n+](CCCCCCCCCC[n+]2ccc(NCCCCCCCCCC)cc2)cc1  S. pyogen. C203           1 (yes)
12  CCCCCCNc1cc[n+](CCCC[n+]2ccc(NCCCCCC)cc2)cc1  S. pyogen. C203           1 (yes)
13  c1c[n+](CCCCCCCCCC[n+]2ccc(NC3CCCCC3)cc2)ccc1NC1CCCCC1  S. pyogen. C203           1 (yes)

----------
system: young adult male Swiss-Webster strain albino mice; assay: Acute oral toxicity (ALD50); type: in vivo; conditions: 1000 mg/kg oral, aqueous solution
measurement.label: Mortality 24 Hrs

                                   compound  value_reported
0  CCCCCCNc1cc[n+](CCCCCCCCCCCCCC[n+]2ccc(NCCCCCC)cc2)cc1 [Example 6]             3/3
1  CCCCCCCNc1cc[n+](CCCCCCCCC[n+]2ccc(NCCCCCCC)cc2)cc1 [Example 25]             3/3
2  CCCCCCCNc1cc[n+](CCCCCCCCCC[n+]2ccc(NCCCCCCC)cc2)cc1 [Example 27]             1/3
3  CCCCCCCCNc1cc[n+](CCCCCCCC[n+]2ccc(NCCCCCCCC)cc2)cc1 [Example 12]             2/3
4  CCCCC(CC)CNc1cc[n+](CCCCCCCCCC[n+]2ccc(NCC(CC)CCCC)cc2)cc1 (stereo not shown) [Example 59]             1/3
5  CCCCCCCCNc1cc[n+](CCCCCCCCCC[n+]2ccc(NCCCCCCCC)cc2)cc1 [10A,B]             0/3
6  CCCCCCCNc1cc[n+](CCCCCCCC[n+]2ccc(NCCCCCCC)cc2)cc1 [Example 23]             3/3

Origin of values: patent US4206215A
